biological target: recombinant human Cathepsin K (Homo sapiens (Human)); test: Inhibition of human Cathepsin K; settings: substrate Z-Gly-Pro-Arg-AMC
Sequence (P43235 115-329): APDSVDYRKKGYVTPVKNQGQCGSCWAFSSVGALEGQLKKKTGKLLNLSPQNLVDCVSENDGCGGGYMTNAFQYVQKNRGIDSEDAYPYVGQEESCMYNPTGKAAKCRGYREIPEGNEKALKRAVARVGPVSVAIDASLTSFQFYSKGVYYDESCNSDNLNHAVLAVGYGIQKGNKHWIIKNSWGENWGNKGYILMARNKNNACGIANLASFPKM
REPORTED METRIC: IC50
Express your answer as a number followed by its unit.

[[record]]
compound = "CN1C(=O)Cc2ccc(-c3cc(F)c(C[C@@H](C#N)NC(=O)[C@H]4N[C@@H]5CC[C@H]4C5)cc3F)cc21"
result = "7.3 µM"

[[record]]
compound = "CC(C)(C)n1cc(-c2ccc(C[C@@H](C#N)NC(=O)[C@H]3N[C@@H]4CC[C@H]3C4)c(F)c2)cn1"
result = "3.8 µM"

[[record]]
compound = "CC1(C)OC(=O)c2ccc(-c3ccc(C[C@@H](C#N)NC(=O)[C@H]4N[C@@H]5CC[C@H]4C5)c(F)c3)cc21"
result = "7.8 µM"

[[record]]
compound = "N#Cc1sccc1-c1ccc(C[C@@H](C#N)NC(=O)[C@H]2N[C@@H]3CC[C@H]2C3)c(F)c1"
result = "3 µM"

[[record]]
compound = "N#C[C@H](Cc1ccc(-c2ccc(C(N)=O)s2)cc1F)NC(=O)[C@H]1N[C@@H]2CC[C@H]1C2"
result = "1.7 µM"

[[record]]
compound = "CC(=O)n1cc(-c2ccc(C[C@@H](C#N)NC(=O)[C@H]3N[C@@H]4CC[C@H]3C4)c(F)c2)cn1"
result = "2.9 µM"


Shifting focus to the compound that follows.
Lab note: N#C[C@H](Cc1ccc(N2CCN3CCOCC3C2)cc1F)NC(=O)[C@H]1N[C@@H]2CC[C@H]1C2 (stereo partly shown) gave IC50 of 2.2 µM

----------
Listed here are molecules together with their documented IC50.
biological target: recombinant human DPPI (Cathepsin C) (Homo sapiens (Human), UniProt P53634); assay: Inhibition of human DPPI (Cathepsin C); conditions: substrate Gly-Arg-AMC
Sequence (P53634 231-394): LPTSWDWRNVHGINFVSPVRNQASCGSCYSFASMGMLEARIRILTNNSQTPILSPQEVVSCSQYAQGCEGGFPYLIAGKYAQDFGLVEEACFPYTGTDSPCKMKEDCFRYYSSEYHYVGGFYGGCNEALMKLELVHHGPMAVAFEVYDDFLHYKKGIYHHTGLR
Sequence (P53634 395-463): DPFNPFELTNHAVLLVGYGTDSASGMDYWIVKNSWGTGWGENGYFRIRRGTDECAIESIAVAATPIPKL
Sequence (P53634 25-134): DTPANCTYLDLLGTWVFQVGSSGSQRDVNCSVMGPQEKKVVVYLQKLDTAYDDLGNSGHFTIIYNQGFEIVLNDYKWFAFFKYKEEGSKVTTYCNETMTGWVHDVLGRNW
Report the value in nM with no unit label.

[[record]]
molecule = "Cn1ncc2cc(-c3ccc(C[C@@H](C#N)NC(=O)[C@H]4N[C@H]5C[C@@H]4[C@@H]4C[C@@H]45)c(F)c3)ccc21"
target_or_system = "recombinant human DPPI (Cathepsin C) (Homo sapiens (Human), UniProt P53634)"
readout_number = 59.7

[[record]]
molecule = "N#CC(Cc1ccc2cn[nH]c2c1)NC(=O)[C@H]1N[C@@H]2CC[C@H]1C2 (stereo partly shown)"
target_or_system = "recombinant human DPPI (Cathepsin C) (Homo sapiens (Human), UniProt P53634)"
readout_number = 860


// field: IC50; key: Cc1ncc(-c2ccc(C[C@@H](C#N)NC(=O)[C@H]3N[C@@H]4CC[C@H]3C4)c(F)c2)s1 ; value = 3.9

# IC50 (molecule: COC(=O)c1cc(-c2ccc(C[C@@H](C#N)NC(=O)[C@H]3N[C@H]4C[C@@H]3[C@@H]3C[C@@H]34)c(F)c2)cs1 ) is 16.1

Quick note, IC50 for CS(=O)(=O)c1cc(-c2cc(F)c(CC(C#N)NC(=O)[C@H]3N[C@@H]4CC[C@H]3C4)c(F)c2)ccc1C#N (stereo partly shown) landed at 7.6

So for N#CC(Cc1cccc2[nH]c(=O)c3cc(F)ccc3c12)NC(=O)[C@H]1N[C@@H]2CC[C@H]1C2 (stereo partly shown) , the logged IC50 turned out to be 882

N#C[C@H](Cc1ccc(-c2cnn3cccnc23)cc1F)NC(=O)[C@H]1N[C@@H]2CC[C@H]1C2 has a reported IC50 of 3.7

Form field IC50, entry N#C[C@H](Cc1ccc(-c2cc(C(N)=O)co2)cc1F)NC(=O)[C@H]1N[C@@H]2CC[C@H]1C2 : 3.4

IC50 measured on CS(=O)(=O)c1cc(-c2ccc(CC(C#N)NC(=O)[C@H]3N[C@@H]4CC[C@H]3C4)c(F)c2)ccc1C#N (stereo partly shown) = 2.8

IC50 measured on CNC(=O)c1ccc(-c2ccc(C[C@@H](C#N)NC(=O)[C@H]3N[C@@H]4CC[C@H]3C4)c(F)c2)cc1 = 9.6

# IC50 (molecule: CCNC(=O)c1coc(-c2ccc(C[C@@H](C#N)NC(=O)[C@H]3N[C@@H]4CC[C@H]3C4)c(F)c2)c1 ) is 10.9
